experiment: MRP1 drug-resistance reversers in H69AR cells – cell-based, doxorubicin co-treatment, pilot screen (AID 601); conditions: H69AR cells + 2 uM doxorubicin, CellTiter-Glo, 72 h; measured here: viability with 2 uM doxorubicin; at 10 µM; stronger effect = lower value
OBSERVED PROPERTY: viability (%)

INSERT INTO results (molecule, observed_property, recorded_value) VALUES
  ('CCCS(=O)(=O)N1CCN(C(=O)c2cccnc2)CC1', 'viability', 101),
  ('Cc1nnc2n(-c3ccc(Cl)cc3)c(=O)c3c4c(sc3n12)CN(C)CC4', 'viability', 103),
  ('COCCn1c(SCC(=O)Nc2ccc3c(c2)OCCO3)nc2c(c1=O)SC(C)C2 (stereo unspecified)', 'viability', 106),
  ('Cc1cc(C)cc(N(CC(=O)NC2CCC(C)CC2)S(=O)(=O)c2c(C)noc2C)c1 (stereo unspecified)', 'viability', 83.8),
  ('CCCCc1nc2ccccc2n2cc3c(=O)n(C)c(=O)n(C)c3c12', 'viability', 84.8),
  ('COc1cc2c(cc1OC)CN(C(=O)CSc1nnc3scc(-c4ccccc4)n13)CC2', 'viability', 77.2),
  ('CC(=O)c1cccc(NC(=O)CCOc2ccccc2)c1', 'viability', 96.3),
  ('Cc1cc(NS(=O)(=O)c2ccccc2)no1', 'viability', 91.7),
  ('CC1CCC(NC(=O)C2(C)CCC(=O)N2Cc2cccnc2)CC1 (stereo unspecified)', 'viability', 87.5),
  ('CC(=O)N1CCc2c(sc(NC(=O)c3ccc(S(=O)(=O)N(C)C)cc3)c2C#N)C1', 'viability', 81.5),
  ('CS(=O)(=O)Nc1ccccc1C(=O)O', 'viability', 96.3);

---

experiment: viability of HCT116 without oncogenic beta-catenin – human colon tumor cells, pilot screen (AID 823); details: HCT116 beta-catenin knockout viability, CellTiter-Glo, 60 h; at 10 µM; stronger effect = lower value;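 note: 0% = wells killed by 20 µM Hyamine and 100% = untreated DMSO cell wells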
Inconclusive results are not listed.
OBSERVED PROPERTY: viability (%)

INSERT INTO measurements (compound, observed_property, recorded_value) VALUES
  ('CN1CCN(C2=C(Cl)C(=O)N(c3cccc(Cl)c3)C2=O)CC1', 'viability', 96.3),
  ('COc1cc(-c2nc(-c3cccc(C)c3)no2)cc(OC)c1OC', 'viability', 81.3),
  ('CC(=O)OC1c2ccccc2C(=O)N1Cc1ccccc1Cl (stereo unspecified)', 'viability', 74.6),
  ('Cc1ccc(N2CCN(S(=O)(=O)N(C)C)CC2)c(C)c1', 'viability', 90.6),
  ('CC(C)(C)NC(=O)CSc1nnc(-c2ccccn2)n1-c1ccccc1', 'viability', 100),
  ('CCOC(=O)N1CCC(Nc2ncnc3c2cnn3-c2ccc(C)cc2C)CC1', 'viability', 70.2),
  ('CCN1CCN(C(CNC(=O)c2ccc3c(c2)OCO3)c2cccnc2)CC1 (stereo unspecified)', 'viability', 104),
  ('COCCNC(=O)c1cc(-c2ccccc2OC)on1', 'viability', 62.3),
  ('Cc1cccc(NC(=O)Nc2cccc(C#N)c2)n1', 'viability', 43.5),
  ('NC(=O)C1CCN(C(=O)c2cc3n(n2)C(C(F)(F)F)CC(c2ccco2)N3)CC1 (stereo unspecified)', 'viability', 97),
  ('Cn1cccc1Cc1nnc(SCC(=O)NCc2ccccc2)n1-c1ccc(F)cc1', 'viability', 90.8);

---

experiment: RAM signaling pathway blockade in yeast – S. cerevisiae, Pdr1DBD-CYC8 efflux-inhibited sensitized strain, primary screen (AID 1298);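 note: 0% = DMSO untreated cells without growth and 100% = 10 µM 1-NA-PP1 full growth; higher means more yeast growth rescued from 5-FOA killing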; settings: S. cerevisiae cbk1-as DSE1-URA3 strain, 5-FOA growth OD615, 2 d; at 50 µM; stronger effect = higher value
OBSERVED PROPERTY: RAM network inhibition (%)

INSERT INTO measurements (compound, observed_property, unit_info, recorded_value) VALUES
  ('CCCCCn1c(CN2CCN(C(=O)c3ccco3)CC2)nc2c1c(=O)n(C)c(=O)n2C', 'RAM network inhibition', '%', 1.17),
  ('CCOC(=O)N1CCN(c2cc(=O)n(-c3ccccc3Cl)c(=O)[nH]2)CC1', 'RAM network inhibition', '%', 4.58),
  ('c1nc(NCC2(N3CCOCC3)CCCCC2)c2ccsc2n1', 'RAM network inhibition', '%', 8.05),
  ('Cc1ccc(O)c(N=CC2=C(O)c3ccccc3C2=O)c1', 'RAM network inhibition', '%', 1.92),
  ('Cc1ccc(-c2cc(C(F)F)n3ncc(C(=O)N4CCN(c5ccccn5)CC4)c3n2)cc1', 'RAM network inhibition', '%', 6.29),
  ('CCOc1ccc(S(=O)(=O)N2CCN(c3ccc(C)cc3C)CC2)cc1', 'RAM network inhibition', '%', 6.67),
  ('CC(=O)NCCc1nc2ccccc2[nH]1', 'RAM network inhibition', '%', 2.3),
  ('CN(C)S(=O)(=O)c1ccc(C(=O)Nc2ccc(F)cc2F)cc1', 'RAM network inhibition', '%', 2.9),
  ('CCCSc1nnc(N2C(=O)CC(c3ccsc3)C3=C2CCCC3=O)s1 (configuration not stated)', 'RAM network inhibition', '%', 7.67),
  ('Cc1cccc(NC(=O)CS(=O)(=O)c2cn(C)c3ccccc23)c1', 'RAM network inhibition', '%', 4.28),
  ('Fc1cccc(-c2cc3nc4c(c(N5CCC6(CC5)OCCO6)n3n2)CCCC4)c1', 'RAM network inhibition', '%', -0.47),
  ('NC(=O)C1CCN(C(=O)c2cnn(-c3ccccc3)c2NC(=O)c2ccco2)CC1', 'RAM network inhibition', '%', 5.39),
  ('COc1ccccc1CNC(=O)c1cnc2ccccn2c1=O', 'RAM network inhibition', '%', 2.45),
  ('O=C(Cn1ncc2c1-c1ccccc1OC2)N1CCN(c2ccccn2)CC1', 'RAM network inhibition', '%', 3.36),
  ('CCOC(=O)c1c(CN2CCCCC2)n(C)c2cc(Br)c(O)c(CN(C)C)c12', 'RAM network inhibition', '%', 0.94),
  ('CCOC(=O)N1CCN(C(=O)c2ccc(N3C(=O)c4ccccc4C3=O)cc2)CC1', 'RAM network inhibition', '%', 4.06),
  ('CC1CCCCN1C(=O)c1ccc(S(=O)(=O)N2CCCCC2C)cc1 (configuration not stated)', 'RAM network inhibition', '%', 2.28),
  ('c1ccc(CN2CCN(CCCNc3ccc4nnc(-c5ccccc5)n4n3)CC2)cc1', 'RAM network inhibition', '%', 3.65),
  ('CCCCOC(=O)c1[nH]c2c(c1C)C(=O)CC(c1cc(OC)c(OC)c(OC)c1)C2 (configuration not stated)', 'RAM network inhibition', '%', 3.15),
  ('Cc1nc2ccccc2c2oc(C(=O)N3CCC(N4CCCCC4)CC3)cc12', 'RAM network inhibition', '%', 4.3),
  ('Cc1cc2c3nonc3ccc2n1-c1ccccc1', 'RAM network inhibition', '%', 6.15),
  ('COc1ccc(C(=O)Nc2nncs2)c(OC)c1', 'RAM network inhibition', '%', 5.61);

---

assay: RAM signaling pathway blockade in yeast – S. cerevisiae, Pdr1DBD-CYC8 efflux-inhibited sensitized strain, primary screen (AID 1298);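 note: 0% = DMSO untreated cells without growth and 100% = 10 µM 1-NA-PP1 full growth; higher means more yeast growth rescued from 5-FOA killing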; settings: S. cerevisiae cbk1-as DSE1-URA3 strain, 5-FOA growth OD615, 2 d; at 50 µM; stronger effect = higher value
# thresholds on RAM network inhibition define classes: bottom range (below 2%), center range (2% to below 4%), top range (4% or more)

INSERT INTO assay_data (compound, class_label) VALUES
  ('CCOC(=O)C1CCN(S(=O)(=O)c2ccc3c4c(cccc24)C(=O)N3)CC1', 'center range'),
  ('CC1Cc2ccccc2N1C(=O)CCn1c(=O)sc2ccccc21 (stereo not drawn)', 'center range'),
  ('O=C(Cn1cc2c(n1)CCCC2)NCCCN1CCN(C2CCCCC2)CC1', 'bottom range'),
  ('CCc1ccc(-n2c(O)cnc2Nc2nc(C)cc(C)n2)cc1', 'center range'),
  ('CCOc1ccc(N(CC(=O)Nc2cccc(OC)c2)S(=O)(=O)c2c(C)noc2C)cc1', 'top range'),
  ('NC(=O)C1(N2CCCCC2)CCN(C(=O)c2ccccc2)CC1', 'top range'),
  ('Cc1cc(NS(=O)(=O)c2ccccc2)no1', 'top range'),
  ('COCCCNC(=O)CC1Oc2ccccc2NC1=O (stereo not drawn)', 'center range'),
  ('COCCNC(=O)Cn1ncc2ccsc2c1=O', 'top range'),
  ('O=C(CSc1nc2c(cnn2-c2ccc(F)cc2)c(=O)[nH]1)N1CCCCC1', 'bottom range'),
  ('O=C1C(C=NCCCN2CCOCC2)=C(O)c2ccccc21', 'top range'),
  ('Cc1cc(C)c(NC(=O)Cn2cc3c(n2)CCCC3)c(C)c1', 'top range'),
  ('CSc1cccc(NC(=O)C2CCN(S(=O)(=O)c3ccc(F)cc3)CC2)c1', 'top range'),
  ('COCCNC(=O)CN(C)S(=O)(=O)c1ccc(Br)cc1', 'center range'),
  ('CC(=O)Nc1ccc(S(=O)(=O)NCc2ccc3c(c2)cc(C)n3C)cc1', 'center range'),
  ('Cn1c(Cn2c(=O)sc3ccccc32)nnc1SCC(=O)Nc1ccc(F)cc1', 'top range'),
  ('COC(=O)c1cc(COc2ccc3c4c(c(=O)oc3c2)CCCC4)c(C)o1', 'center range'),
  ('Cc1cccc(OCC(=O)Nc2ccc(N3CCCC3)cc2)c1C', 'top range'),
  ('CCn1cc(C2=NOC(C(=O)Nc3c(C)nn(Cc4ccc(F)cc4)c3C)C2)c(C)n1 (stereo not drawn)', 'bottom range'),
  ('C=CCn1c(SC(C)C(=O)NC2(C#N)CCCCC2)nnc1-c1ccc(OC)cc1 (stereo not drawn)', 'bottom range'),
  ('Cc1cc2cc(CNC(=O)C3CCCC3)ccc2n1C', 'center range'),
  ('Cn1c(Cc2ccccc2)nnc1SCC(=O)NC1CCCCC1', 'bottom range'),
  ('CCOc1cccc(OCCCCn2ccnc2)c1', 'bottom range');
